Cited source: the supplement of paper PMC10307832

Entries and their measured relative viability follow.
tested on: NCI-H520; assay: relative viability (nuclei count vs DMSO), 5 days (fraction); higher = more cells survive; details: first compound 0.05 µM
Readout Label: relative viability

Compound	Readout Label	Reported Measurement
CC1(C)CCC(c2ccc(Cl)cc2)=C(CN2CCN(c3ccc(C(=O)NS(=O)(=O)c4ccc(N[C@H](CCN5CCOCC5)CSc5ccccc5)c(S(=O)(=O)C(F)(F)F)c4)cc3)CC2)C1 [Navitoclax] + CCNC(=O)c1noc(-c2cc(C(C)C)c(O)cc2O)c1-c1ccc(CN2CCOCC2)cc1 [Luminespib] (partner 0.01 µM)	relative viability	0.268
CC1(C)CCC(c2ccc(Cl)cc2)=C(CN2CCN(c3ccc(C(=O)NS(=O)(=O)c4ccc(N[C@H](CCN5CCOCC5)CSc5ccccc5)c(S(=O)(=O)C(F)(F)F)c4)cc3)CC2)C1 [Navitoclax] + Cc1nc(NC(=O)N2CCC[C@H]2C(N)=O)sc1-c1ccnc(C(C)(C)C(F)(F)F)c1 [Alpelisib] (partner 2 µM)	relative viability	0.981
CC1(C)CCC(c2ccc(Cl)cc2)=C(CN2CCN(c3ccc(C(=O)NS(=O)(=O)c4ccc(N[C@H](CCN5CCOCC5)CSc5ccccc5)c(S(=O)(=O)C(F)(F)F)c4)cc3)CC2)C1 [Navitoclax] + Cc1cc(Nc2cc(N3CCN(C)CC3)nc(Sc3ccc(NC(=O)C4CC4)cc3)n2)n[nH]1 [Tozasertib] (partner 0.1 µM)	relative viability	0.419
CC1(C)CCC(c2ccc(Cl)cc2)=C(CN2CCN(c3ccc(C(=O)NS(=O)(=O)c4ccc(N[C@H](CCN5CCOCC5)CSc5ccccc5)c(S(=O)(=O)C(F)(F)F)c4)cc3)CC2)C1 [Navitoclax] + O=C(c1cc(Cc2n[nH]c(=O)c3ccccc23)ccc1F)N1CCN(C(=O)C2CC2)CC1 [Olaparib] (partner 8 µM)	relative viability	0.336
CC1(C)CCC(c2ccc(Cl)cc2)=C(CN2CCN(c3ccc(C(=O)NS(=O)(=O)c4ccc(N[C@H](CCN5CCOCC5)CSc5ccccc5)c(S(=O)(=O)C(F)(F)F)c4)cc3)CC2)C1 [Navitoclax] + C[C@@H](Oc1cc(-c2cnn(C3CCNCC3)c2)cnc1N)c1c(Cl)ccc(F)c1Cl [Crizotinib] (partner 1 µM)	relative viability	0.762
